Tested on: rat trachea rings
Test Protocol: Measurement of isometric force development: constriction of rat trachea rings
Particulars: 30 nM; in % of the constriction induced by 50 mM KCl
Assignment: determine reported % trachea constriction at 30 nM for the given compounds.

Qu. Which % trachea constriction at 30 nM value belongs to "CCc1cc(-c2noc(-c3cc(OC)nc(C4CCCC4)c3)n2)cc(C)c1OCC(=O)O" ?
Ans. <5%

Qu. How about this compound: "CCc1cc(-c2noc(-c3cc(OC)nc(C4CCCC4)c3)n2)cc(C)c1OCCCC(=O)O"
Ans. <5%

Qu. Record: "COc1cc(-c2nc(-c3cc(Cl)c(OCCCC(=O)O)c(OC)c3)no2)cc(C2CCCC2)n1"
Ans. <5%

Qu. And "CCc1cc(-c2noc(-c3cc(OC)nc(C4CCCC4)c3)n2)cc(C)c1OCCN1CC(C(=O)O)C1" ?
Ans. <5%

Qu. Also "CCc1cc(-c2nc(-c3cc(OC)nc(C4CCCC4)c3)no2)cc(C)c1OCCCC(=O)O" ?
Ans. <5%

Qu. Same lookup for "COc1cc(-c2nc(-c3cc(C)c(OCC(=O)O)c(Cl)c3)no2)cc(C2CCCC2)n1" , please.
Ans. 10%

====

System Tested: human S1P1 (EDG1) receptor (Homo sapiens, UniProt P21453)
Sequence (P21453 whole entry): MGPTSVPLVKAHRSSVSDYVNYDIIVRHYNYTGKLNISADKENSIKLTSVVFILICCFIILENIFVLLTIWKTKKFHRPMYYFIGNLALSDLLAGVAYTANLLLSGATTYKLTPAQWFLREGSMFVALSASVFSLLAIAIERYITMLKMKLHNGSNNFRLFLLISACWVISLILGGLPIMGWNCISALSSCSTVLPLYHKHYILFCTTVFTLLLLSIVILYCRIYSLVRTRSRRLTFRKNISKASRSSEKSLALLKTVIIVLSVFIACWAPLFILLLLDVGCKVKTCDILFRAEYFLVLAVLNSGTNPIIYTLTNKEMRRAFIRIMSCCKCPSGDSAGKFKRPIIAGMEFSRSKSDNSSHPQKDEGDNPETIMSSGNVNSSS
Test Protocol: S1P1 β-arrestin recruitment (Tango) assay to determine EC50 values
Particulars: Tango-EDG1 bla U2OS cells, 16 h incubation
Please use Met for EC50 under 0.5 nM and Not met for everything else, ties included.

Qu. Does the reported EC50 of the following compound sit strictly below 0.5 nM? "COc1cc(-c2nc(-c3cc(C)c(OCCNCCO)c(Cl)c3)no2)cc(C2CCCC2)n1"
Ans. Not met

Qu. Would you mind doing "CCc1cc(-c2noc(-c3cc(OC)nc(C4CCCC4)c3)n2)cc(C)c1OC[C@@H](O)CNC(=O)CC(=O)O" as well?
Ans. Met

Qu. Next: "CCc1cc(-c2noc(-c3cc(OC)nc(C4CCCC4)c3)n2)cc(C)c1OCCCNC(=O)CCC(=O)O"
Ans. Met

Qu. Field entry: "CCc1cc(-c2nc(-c3cc(OC)nc(C4CCCC4)c3)no2)cc(C)c1OCCCC(=O)O"
Ans. Met

Qu. Try "COc1cc(-c2nc(-c3cc(C)c(OCCNCCC(=O)O)c(Cl)c3)no2)cc(C2CCCC2)n1" next.
Ans. Met

Qu. How about "CCc1cc(-c2noc(-c3cc(OC)nc(C4CCCC4)c3)n2)cc(C)c1OC[C@@H](O)CNCCO" ?
Ans. Not met

Qu. Same read-out for "CCc1cc(-c2noc(-c3cc(OC)nc(C4CCCC4)c3)n2)cc(C)c1OCCCNC(=O)CC(=O)O" ?
Ans. Met

Qu. And what about the compound "CCc1cc(-c2noc(-c3cc(OC)nc(C4CCCC4)c3)n2)cc(C)c1OCC(=O)NCCO" ?
Ans. Not met

Qu. And the next one, "CCc1cc(-c2nc(-c3cc(OC)nc(C4CCCC4)c3)no2)cc(C)c1OCC(=O)O" ?
Ans. Not met

Qu. Entry to check: "CCc1cc(-c2noc(-c3cc(OC)nc(C4CCCC4)c3)n2)cc(C)c1OCCN(C)CCC(=O)O"
Ans. Met

Qu. And for "CCc1cc(-c2noc(-c3cc(OC)nc(C4CCCC4)c3)n2)cc(C)c1OCCNCCCC(=O)O" ?
Ans. Met

Qu. Quick one: "CCc1cc(-c2nnc(-c3cc(OC)nc(C4CCCC4)c3)o2)cc(C)c1OCCNCCC(=O)O"
Ans. Met

Qu. How about "CCc1cc(-c2nnc(-c3cc(OC)nc(C4CCCC4)c3)o2)cc(C)c1OC[C@@H](O)CNC(CO)CO" ?
Ans. Not met

Qu. Same for CCc1cc(-c2noc(-c3cc(OC)nc(C4CCCC4)c3)n2)cc(C)c1OCCN1CCC(C(=O)O)C1 (racemic)
Ans. Met

Qu. Would you mind doing "CCc1cc(-c2noc(-c3cc(OC)nc(C4CCCC4)c3)n2)cc(C)c1OCCCN(C)CCC(=O)O" as well?
Ans. Not met

====

Test system: rat trachea rings
Test Protocol: Measurement of isometric force development: constriction of rat trachea rings
Particulars: Rattus norvegicus, read-out: % trachea constriction at 1 μM
Provide the reported activation at 1 µM of each item.
Report only the number, with the unit % understood.

Qu. If you can, please state the reported activation at 1 µM value of "CCc1cc(-c2noc(-c3cc(OC)nc(C4CCCC4)c3)n2)cc(C)c1OCCN1CC(C(=O)O)C1" .
Ans. 93

Qu. Consider next the compound "CCc1cc(-c2noc(-c3cc(OC)nc(C4CCCC4)c3)n2)cc(C)c1OCC(=O)O" in the same way.
Ans. 124

Qu. Next entry: "CCc1cc(-c2noc(-c3cc(OC)nc(C4CCCC4)c3)n2)cc(C)c1OCCCNC(=O)CCC(=O)O"
Ans. 105

Qu. Query "CCc1cc(-c2noc(-c3cc(OC)nc(C4CCCC4)c3)n2)cc(C)c1OCCCC(=O)O" next
Ans. 110

Qu. Then what about the compound "CCc1cc(-c2noc(-c3cc(OC)nc(C4CCCC4)c3)n2)cc(C)c1OCCNCCC(=O)O" ?
Ans. 96

Qu. Try the compound "CCc1cc(-c2nc(-c3cc(OC)nc(C4CCCC4)c3)no2)cc(C)c1OCCCC(=O)O"
Ans. 76

====

System Tested: human S1P1 (EDG1) receptor (Homo sapiens)
Test Protocol: S1P1 β-arrestin recruitment (Tango) assay to determine EC50 values
Particulars: Tango-EDG1 bla U2OS cells, 16 h incubation
Consider the reported EC50 of an entry and match it to a band in Low: < 0.3 nM; Medium: ≥ 0.3 nM and < 2 nM; High: ≥ 2 nM

Qu. # classify by EC50 band: CCc1cc(-c2noc(-c3cc(OC)nc(C4CCCC4)c3)n2)cc(C)c1OCCNC(=O)CC(=O)O [Example 49]
Ans. Low

Qu. Another: COc1cc(-c2nc(-c3cc(Cl)c(OCCN4CC(C(=O)O)C4)c(OC)c3)no2)cc(C2CCCC2)n1 [Example 52]
Ans. Medium

Qu. // same read-out, input: CCc1cc(-c2noc(-c3cc(OC)nc(C4CCCC4)c3)n2)cc(C)c1OCCCN(C)C(=O)CCC(=O)O [Example 34]
Ans. Medium

Qu. COc1cc(-c2nc(-c3cc(Cl)c(OCCCC(=O)O)c(OC)c3)no2)cc(C2CCCC2)n1 [Example 35] ?
Ans. Medium

Qu. Now consider COc1cc(-c2nc(-c3cc(Cl)c(OCCNCC(=O)O)c(OC)c3)no2)cc(C2CCCC2)n1 [Example 51] .
Ans. Medium

Qu. Next up: CCc1cc(-c2noc(-c3cc(OC)nc(C4CCCC4)c3)n2)cc(C)c1OCCCNCC(O)CO (racemic) [Example 28]
Ans. High

Qu. Okay, and CCc1cc(-c2noc(-c3cc(OC)nc(C4CCCC4)c3)n2)cc(C)c1OCCNCC(O)CO (racemic) [Example 27] ?
Ans. High

Qu. Another compound: COc1cc(-c2nc(-c3cc(Cl)c(OCCCNC(=O)CO)c(OC)c3)no2)cc(C2CCCC2)n1 [Example 38]
Ans. Medium

Qu. One more compound: CCc1cc(-c2noc(-c3cc(OC)nc(C4CCCC4)c3)n2)cc(C)c1OCCCC(=O)NCCO [Example 46]
Ans. Medium

Qu. // same read-out, input: COc1cc(-c2nc(-c3cc(C)c(OCCN4CC(C(=O)O)C4)c(Cl)c3)no2)cc(C2CCCC2)n1 [Example 44]
Ans. Low

Qu. Moving on to the next compound: CCc1cc(-c2nnc(-c3cc(OC)nc(C4CCCC4)c3)o2)cc(C)c1OCC(=O)O [Example 60]
Ans. High

Qu. And what about the compound CCc1cc(-c2noc(-c3cc(OC)nc(C4CCCC4)c3)n2)cc(C)c1OC[C@@H](O)CNCCC(=O)O [Example 10] ?
Ans. Low

Qu. Would you kindly repeat that for CCc1cc(-c2nnc(-c3cc(OC)nc(C4CCCC4)c3)o2)cc(C)c1OCCCC(=O)O [Example 61] ?
Ans. Low

Qu. Would you kindly repeat that for CCc1cc(-c2noc(-c3cc(OC)nc(C4CCCC4)c3)n2)cc(C)c1OCCCN1CC(C(=O)O)C1 [Example 22] ?
Ans. High

Qu. Also need CCc1cc(-c2nc(-c3cc(OC)nc(C4CCCC4)c3)no2)cc(C)c1OCCN1CC(C(=O)O)C1 [Example 58] , thanks.
Ans. Low

Qu. Follow-up entry: CCc1cc(-c2noc(-c3cc(OC)nc(C4CCCC4)c3)n2)cc(C)c1OCCNCCO [Example 23]
Ans. High
